Biological target: T1, TNFR1 (Homo sapiens, UniProt P19438)
T1 chain: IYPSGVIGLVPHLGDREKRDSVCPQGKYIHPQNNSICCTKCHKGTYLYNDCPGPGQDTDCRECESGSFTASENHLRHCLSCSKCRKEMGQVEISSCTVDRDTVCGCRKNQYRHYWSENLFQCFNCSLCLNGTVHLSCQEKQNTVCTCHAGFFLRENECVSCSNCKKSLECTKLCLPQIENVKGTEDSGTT
Experiment: yeast display SC50
property-label: apparent Kd (screen) (nM)

a. E26V (designed binder) SMEEEVEKAAKEYEKKKKEAIEKHLVKLKAKDKEAAERFLKELEEAAKEYAKDEAKTMSEEEAKRRAKKYKEKVLLSELSEEEQKEIKEAEEKLVRTILKYVEEAAK
b. A63V (designed binder) SMEEEVEKAAKEYEKKKKEAIEKHLEKLKAKDKEAAERFLKELEEAAKEYAKDEAKTMSEEEVKRRAKKYKEKVLLSELSEEEQKEIKEAEEKLVRTILKYVEEAAK
Query :: Please tell me which of the two, a or b , has the higher reported apparent Kd (screen) value. Lab note: record the label of whichever item you select.
Result :: b
(b: 15.2 nM, a: 0.79 nM)
